Biological target: human FXR (NR1H4) (Homo sapiens)
Construct: host or cells: CHO (Chinese hamster ovary) reporter cells
Sequence (Q96RI1 whole entry): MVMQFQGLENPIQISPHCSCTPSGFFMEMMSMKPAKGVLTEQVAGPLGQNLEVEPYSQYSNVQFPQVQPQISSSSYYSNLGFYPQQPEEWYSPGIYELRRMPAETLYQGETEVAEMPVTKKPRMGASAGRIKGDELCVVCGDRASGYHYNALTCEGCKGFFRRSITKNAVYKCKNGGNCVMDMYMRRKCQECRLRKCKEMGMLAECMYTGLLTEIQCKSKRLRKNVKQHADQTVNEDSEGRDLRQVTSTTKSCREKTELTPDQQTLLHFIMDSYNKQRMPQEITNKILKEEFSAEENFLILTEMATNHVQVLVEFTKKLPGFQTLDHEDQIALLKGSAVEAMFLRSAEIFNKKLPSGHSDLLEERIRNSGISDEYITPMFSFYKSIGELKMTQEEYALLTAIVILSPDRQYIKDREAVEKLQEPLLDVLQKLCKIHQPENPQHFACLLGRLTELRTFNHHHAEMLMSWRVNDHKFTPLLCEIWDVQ
Assay: Human FXR (NR1H4) Assay (Gal4 promoter driven luciferase reporter, CHO cells)
Assay type: cell-based
Description: Assays Human FXR (NR1H4) Assay Determination of a ligand mediated Gal4 promoter driven transactivation to quantify ligand binding mediated activation of FXR. […] The principle application of this reporter assay system is to quantify functional activity of human FXR. […] Luminescence intensity of the reaction is quantified using a plate-reading luminometer, Envision. […] Cells were incubated for additional 22 hours before luciferase activities were measured. […] Read time may be 0.5 second (500 mSec) per well.
Quick reference for Efficacy (%) among some molecules
API: value field is a number in %; no unit string.

Below: 4 molecules and their reported Efficacy (%).
CC[C@H]1[C@@H](O)[C@@H]2[C@H](CC[C@]3(C)[C@@H]([C@H](C)CCCOP(=O)(Oc4ccccc4)c4ccccc4)CC[C@@H]23)[C@@]2(C)CC[C@@H](O)C[C@@H]12 (some centres unmarked) [Example 26] | 129
CCOP(=O)(CCC[C@@H](C)[C@H]1CC[C@H]2[C@@H]3[C@H](O)[C@H](CC)[C@@H]4C[C@H](O)CC[C@]4(C)[C@H]3CC[C@]12C)c1ccccc1 (some centres unmarked) [Example 28] | 265
CCOP(=O)(CCC[C@@H](C)[C@H]1CC[C@H]2[C@@H]3[C@H](O)[C@H](CC)[C@@H]4C[C@H](O)CC[C@]4(C)[C@H]3CC[C@]12C)OCC [Example 27] | 246
CC[C@H]1[C@@H](O)[C@@H]2[C@H](CC[C@]3(C)[C@@H]([C@H](C)CCS(=O)(=O)[O-])CC[C@@H]23)[C@@]2(C)CC[C@@H](O)C[C@@H]12.[Na+] [Example 11] | 1

Continue with the molecule presented below.
Query: Efficacy (%); subject: CCOP(=O)(CC[C@@H](C)[C@H]1CC[C@H]2[C@@H]3[C@H](O)[C@H](CC)[C@@H]4C[C@H](O)CC[C@]4(C)[C@H]3CC[C@]12C)c1ccccc1 (some centres unmarked) [Example 29]
49.

Data origin: patent US10519191B2
